- Assay target: PD-1 (PDCD1) (Homo sapiens (Human)) (UniProt Q15116)
- Sequence (Q15116 21-288): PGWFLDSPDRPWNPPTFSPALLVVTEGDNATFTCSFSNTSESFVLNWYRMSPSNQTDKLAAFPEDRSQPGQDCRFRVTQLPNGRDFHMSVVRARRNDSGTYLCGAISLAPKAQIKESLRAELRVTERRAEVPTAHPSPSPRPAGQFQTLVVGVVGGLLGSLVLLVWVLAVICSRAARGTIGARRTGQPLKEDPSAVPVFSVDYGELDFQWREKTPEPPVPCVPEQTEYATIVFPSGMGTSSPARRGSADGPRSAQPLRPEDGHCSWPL
- Test protocol: cell-based or functional assay; further: test concentration or dose not given here
Measured attribute: IFN gamma levels pg/mL (MLR)
Form field: result (number plus unit)

PD-L2 I13V/H15Q/T47A/Q82R IgV-Fc (Fc fusion, not shown: a dimerising Fc or GST) LFTVTVPKELYIVEQGSNVTLECNFDTGSHVNLGAITASLQKVENDASPHRERATLLEEQLPLGKASFHIPQVQVRDEGQYRCIIIYGVAWDYKYLTLKVKA; 1700 pg/mL

Turning to the following binder.
[ask] Name the reported IFN gamma levels pg/mL (MLR) value associated with the binder PD-L2 I13V/H15Q/V89D IgV-Fc (Fc fusion, not shown: a dimerising Fc or GST) LFTVTVPKELYIVEQGSNVTLECNFDTGSHVNLGAITASLQKVENDTSPHRERATLLEEQLPLGKASFHIPQVQVRDEGQYQCIIIYGDAWDYKYLTLKVKA
[reply] 1120 pg/mL
